# System: 454973-116-R2-J3-PDC complex spheroid viability
# procedure details: Anticancer human tumor 454973-116-R2-J3-PDC patient-derived pancreatic carcinoma cell line growth inhibition [POLQ]; active = viability on the fitted dose curve at most 10% of control; inactive = the rest
# stated conditions: second compound 1 µM; first compound 3.16 µM
Hi there, use one of these labels in your reply, thanks! TRUE = active, FALSE = inactive

>>> class("CCc1cc2c(N3CCc4c(cc(Cn5ccnc5)cc4-c4cn(C)nc4C(F)(F)F)C3=O)cc(C)nc2c(OC)n1 + Cc1cccc(N(C)C(=O)C2C(O)CCN2c2nc(C)cc(C(F)(F)F)c2C#N)c1")
"FALSE"
>>> class("CC(C)n1c(=O)n(C)c2cnc3cc(F)c(-c4ccc(OCCCN5CCCCC5)nc4)cc3c21 + Nc1ccc(C#CCN(C(=O)Cc2ncc(C(F)(F)F)cc2C(F)(F)F)c2ccc(F)cc2)nn1")
"FALSE"

Test call, this compound: O=c1[nH]cc(F)c(=O)[nH]1 + Cc1cccc(N(C)C(=O)C2C(O)CCN2c2nc(C)cc(C(F)(F)F)c2C#N)c1
FALSE

Now consider CC1COCCN1c1cc(C2(O)CC3CCC(C2)O3)c2cnn(-c3ccn[nH]3)c2n1 (stereo not drawn) + COC1C(OC(N)=O)C(O)C(Oc2ccc3c(O)c(NC(=O)c4ccc(O)c(CC=C(C)C)c4)c(=O)oc3c2C)OC1(C)C .
FALSE

Now consider COc1cc(C2c3cc4c(cc3C(OC3OC5COC(C)OC5C(O)C3O)C3COC(=O)C23)OCO4)cc(OC)c1O (stereo not drawn) + Cc1cccc(N(C)C(=O)C2C(O)CCN2c2nc(C)cc(C(F)(F)F)c2C#N)c1 .
FALSE

Now consider COc1ccc([C@@H](O)c2cc(-c3ncnc4cc(N5CCOCC5)ccc34)c(F)cc2Cl)nn1 + Nc1ccc(C#CCN(C(=O)Cc2ncc(C(F)(F)F)cc2C(F)(F)F)c2ccc(F)cc2)nn1 .
FALSE

Now consider CCc1cc2c(N3CCc4c(cc(Cn5ccnc5)cc4-c4cn(C)nc4C(F)(F)F)C3=O)cc(C)nc2c(OC)n1 + COC1C(OC(N)=O)C(O)C(Oc2ccc3c(O)c(NC(=O)c4ccc(O)c(CC=C(C)C)c4)c(=O)oc3c2C)OC1(C)C .
FALSE

###

# Test system: 454973-116-R2-J3-PDC complex spheroid viability
# procedure details: Anticancer human tumor 454973-116-R2-J3-PDC cell line growth inhibition [POLQ];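 also: spheroids exposed to drugs for seven days before measurement; percent viability relative to DMSO vehicle control wells taken as 100%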
# stated conditions: second compound 0.1 µM; first compound 0.0316 µM; stronger effect = lower value
Lab note: cut-off is 70%. Strictly less in viability, T/C is yes. Exactly 70% or more is no.

Solved entries:
>>> class("CC1COCCN1c1cc(-c2ccnn2C)c2ccnc(-c3ccn[nH]3)c2n1 (stereo unspecified) + COC1C(OC(N)=O)C(O)C(Oc2ccc3c(O)c(NC(=O)c4ccc(O)c(CC=C(C)C)c4)c(=O)oc3c2C)OC1(C)C")
"no"
>>> class("CCc1cc2c(N3CCc4c(cc(Cn5ccnc5)cc4-c4cn(C)nc4C(F)(F)F)C3=O)ccnc2c(OC)n1 + Cc1cccc(N(C)C(=O)C2C(O)CCN2c2nc(C)cc(C(F)(F)F)c2C#N)c1")
"no"
>>> class("COc1ccc([C@@H](O)c2cc(-c3ncnc4cc(N5CCOCC5)ccc34)c(F)cc2Cl)nn1 + Nc1ccc(C#CCN(C(=O)Cc2ncc(C(F)(F)F)cc2C(F)(F)F)c2ccc(F)cc2)nn1")
"no"
>>> class("CNCc1ccc(-c2[nH]c3cc(F)cc4c3c2CCNC4=O)cc1 + Cc1cccc(N(C)C(=O)C2C(O)CCN2c2nc(C)cc(C(F)(F)F)c2C#N)c1")
"no"
>>> class("C#Cc1c(F)ccc2cc(O)cc(-c3ncc4c(N5CC6CCC(C5)N6)nc(OCC56CCCN5CC(F)C6)nc4c3F)c12 (stereo unspecified) + Cc1cccc(N(C)C(=O)C2C(O)CCN2c2nc(C)cc(C(F)(F)F)c2C#N)c1")
"yes"

Regarding CC[C@@]1(O)C(=O)OCc2c1cc1n(c2=O)Cc2cc3c(CN(C)C)c(O)ccc3nc2-1 + COC1C(OC(N)=O)C(O)C(Oc2ccc3c(O)c(NC(=O)c4ccc(O)c(CC=C(C)C)c4)c(=O)oc3c2C)OC1(C)C , kindly confirm whether its viability, T/C is beneath 70%.
yes

Now consider CNCc1ccc(-c2[nH]c3cc(F)cc4c3c2CCNC4=O)cc1 + COC1C(OC(N)=O)C(O)C(Oc2ccc3c(O)c(NC(=O)c4ccc(O)c(CC=C(C)C)c4)c(=O)oc3c2C)OC1(C)C .
no

Now consider COc1cccc(OCCCN)c1-c1cc(Nc2cnc(C#N)cn2)n[nH]1 + Nc1ccc(C#CCN(C(=O)Cc2ncc(C(F)(F)F)cc2C(F)(F)F)c2ccc(F)cc2)nn1 .
yes

Now consider CC1COCCN1c1cc(C2(O)CC3CCC(C2)O3)c2cnn(-c3ccn[nH]3)c2n1 (stereo unspecified) + COC1C(OC(N)=O)C(O)C(Oc2ccc3c(O)c(NC(=O)c4ccc(O)c(CC=C(C)C)c4)c(=O)oc3c2C)OC1(C)C .
no

Now consider CC[C@@]1(O)C(=O)OCc2c1cc1n(c2=O)Cc2cc3c(CN(C)C)c(O)ccc3nc2-1 + Cc1cccc(N(C)C(=O)C2C(O)CCN2c2nc(C)cc(C(F)(F)F)c2C#N)c1 .
yes

Now consider CC1COCCN1c1cc(C2(S(C)(=N)=O)CC2)nc(-c2ccnc3[nH]ccc23)n1 (stereo unspecified) + Cc1cccc(N(C)C(=O)C2C(O)CCN2c2nc(C)cc(C(F)(F)F)c2C#N)c1 .
no

###

# Test system: 454973-116-R2-J3-PDC complex spheroid viability
# procedure details: Anticancer human tumor 454973-116-R2-J3-PDC cell line growth inhibition [POLQ]; active = viability on the fitted dose curve at most 10% of control; inactive = the rest;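 also: spheroids exposed to drugs for seven days before measurement; percent viability relative to DMSO vehicle control wells taken as 100%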
# stated conditions: second compound 1 µM; first compound 0.316 µM
Hi there, use one of these labels in your reply, thanks! Yes = active, No = inactive

Solved entries:
>>> class("CC1COCCN1c1cc(-c2ccnn2C)c2ccnc(-c3ccn[nH]3)c2n1 (stereo not given) + Nc1ccc(C#CCN(C(=O)Cc2ncc(C(F)(F)F)cc2C(F)(F)F)c2ccc(F)cc2)nn1")
"No"
>>> class("COc1cccc2c1C(=O)c1c(O)c3c(c(O)c1C2=O)CC(O)(C(=O)CO)CC3OC1CC(N)C(O)C(C)O1 (stereo not given) + Nc1ccc(C#CCN(C(=O)Cc2ncc(C(F)(F)F)cc2C(F)(F)F)c2ccc(F)cc2)nn1")
"No"
>>> class("CC(C)n1c(=O)n(C)c2cnc3cc(F)c(-c4ccc(OCCCN5CCCCC5)nc4)cc3c21 + Nc1ccc(C#CCN(C(=O)Cc2ncc(C(F)(F)F)cc2C(F)(F)F)c2ccc(F)cc2)nn1")
"No"
>>> class("COc1cccc(OCCCN)c1-c1cc(Nc2cnc(C#N)cn2)n[nH]1 + Cc1cccc(N(C)C(=O)C2C(O)CCN2c2nc(C)cc(C(F)(F)F)c2C#N)c1")
"Yes"

// switching to the query molecule
Test call, this molecule: CCc1c2c(nc3ccc(O)cc13)-c1cc3c(c(=O)n1C2)COC(=O)[C@]3(O)CC + COC1C(OC(N)=O)C(O)C(Oc2ccc3c(O)c(NC(=O)c4ccc(O)c(CC=C(C)C)c4)c(=O)oc3c2C)OC1(C)C
Yes

###

# Tested on: 454973-116-R2-J3-PDC complex spheroid viability
# procedure details: Anticancer human tumor 454973-116-R2-J3-PDC cell line growth inhibition [POLQ];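 also: spheroids exposed to drugs for seven days before measurement; percent viability relative to DMSO vehicle control wells taken as 100%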
# stated conditions: second compound 3.16 µM; first compound 0.00316 µM; stronger effect = lower value
Collected viability, T/C values appear next to each entry.
Output spec: scalar in %, unitless text.

Examples from the recorded data:
>>> reported_measurement("Cn1ncnc1[C@H]1c2n[nH]c(=O)c3cc(F)cc(c23)N[C@@H]1c1ccc(F)cc1 + Nc1ccc(C#CCN(C(=O)Cc2ncc(C(F)(F)F)cc2C(F)(F)F)c2ccc(F)cc2)nn1")
102
>>> reported_measurement("CCc1c2c(nc3ccc(O)cc13)-c1cc3c(c(=O)n1C2)COC(=O)[C@]3(O)CC + COC1C(OC(N)=O)C(O)C(Oc2ccc3c(O)c(NC(=O)c4ccc(O)c(CC=C(C)C)c4)c(=O)oc3c2C)OC1(C)C")
31.2
>>> reported_measurement("Cn1ncnc1[C@H]1c2n[nH]c(=O)c3cc(F)cc(c23)N[C@@H]1c1ccc(F)cc1 + COC1C(OC(N)=O)C(O)C(Oc2ccc3c(O)c(NC(=O)c4ccc(O)c(CC=C(C)C)c4)c(=O)oc3c2C)OC1(C)C")
104
>>> reported_measurement("C=CCn1c(=O)c2cnc(Nc3ccc(N4CCN(C)CC4)cc3)nc2n1-c1cccc(C(C)(C)O)n1 + Nc1ccc(C#CCN(C(=O)Cc2ncc(C(F)(F)F)cc2C(F)(F)F)c2ccc(F)cc2)nn1")
105
>>> reported_measurement("CC[C@@]1(O)C(=O)OCc2c1cc1n(c2=O)Cc2cc3c(CN(C)C)c(O)ccc3nc2-1 + Cc1cccc(N(C)C(=O)C2C(O)CCN2c2nc(C)cc(C(F)(F)F)c2C#N)c1")
105
>>> reported_measurement("COc1cccc(OCCCN)c1-c1cc(Nc2cnc(C#N)cn2)n[nH]1 + Nc1ccc(C#CCN(C(=O)Cc2ncc(C(F)(F)F)cc2C(F)(F)F)c2ccc(F)cc2)nn1")
101

Below: the item to evaluate.
Field request: viability, T/C | item: C=CCn1c(=O)c2cnc(Nc3ccc(N4CCN(C)CC4)cc3)nc2n1-c1cccc(C(C)(C)O)n1 + Cc1cccc(N(C)C(=O)C2C(O)CCN2c2nc(C)cc(C(F)(F)F)c2C#N)c1
112
